# assay_notes: Bioavailability in rat at single dose of 30 mg/kg orally
# test_conditions: in vivo, oral
attribute_measured: bioavailability (%)
Give the value in % but do not write % after it.

*Q* Provide bioavailability value for the following molecule: C[C@@H]1CN(c2ncccc2Cl)CCN1c1nc2ccc(C(C)(C)C)cc2[nH]1
*A* 19.7

----------
# assay_notes: Volume distribution in rat at single dose of 3 mg/kg intravenously
# Format: ADME, organism-based
# Set-up: dose 3 mg/kg, route intravenous
# test_conditions: in vivo, iv
attribute_measured: Vd
Remember to follow the number with its unit.

*Q* Provide Vd value for the following compound: C[C@@H]1CN(c2ncccc2Cl)CCN1c1nc2ccc(C(C)(C)C)cc2[nH]1
*A* 6.87 L/kg

----------
# assay_notes: Clearance value in rat at single dose of 3 mg/kg iv dose
# test_conditions: in vivo
attribute_measured: clearance (mL/min/kg)
Give the value in mL/min/kg but do not write mL/min/kg after it.

*Q* Provide clearance value for the following molecule: C[C@@H]1CN(c2ncccc2Cl)CCN1c1nc2ccc(C(C)(C)C)cc2[nH]1
*A* 133

----------
# assay_notes: Terminal half life value in rat at single dose of 3 mg/kg intravenously
# Assay type: ADME, organism-based
# Set-up: dose 3 mg/kg, route intravenous
# test_conditions: in vivo, iv
attribute_measured: half-life (min)
Give the value in min but do not write min after it.

*Q* Provide half-life value for the following compound: C[C@@H]1CN(c2ncccc2Cl)CCN1c1nc2ccc(C(C)(C)C)cc2[nH]1
*A* 35.4

----------
# assay_notes: Time taken for cmax value in rat at single dose of 30 mg/kg oral dose
# Assay type: ADME, organism-based
# Set-up: dose 30 mg/kg, route oral
# test_conditions: in vivo
attribute_measured: Tmax (h)
Give the value in h but do not write h after it.

*Q* Provide Tmax value for the following compound: C[C@@H]1CN(c2ncccc2Cl)CCN1c1nc2ccc(C(C)(C)C)cc2[nH]1
*A* 3

----------
Each record here notes measured bioavailability.
# assay_notes: Bioavailability in rat (single dose 30 mg/kg p.o.)
# Type: ADME, organism-based
# test_conditions: in vivo, po
Give the value in % but do not write % after it.

molecule_smiles | bioavailability [%]
C[C@@H]1CN(c2ncccc2Cl)CCN1c1nc2ccc(C(C)(C)C)cc2[nH]1 | 19.7

# ---- query molecule ----
*Q* Provide bioavailability value for the following molecule: CC(C)(C)c1ccc(NC(=O)N2CCN(c3ncccc3Cl)CC2)cc1
*A* 15

----------
# tested_system: Transient receptor potential cation channel subfamily V member 1 (Homo sapiens, UniProt Q8NER1)
# Sequence (Q8NER1 whole entry): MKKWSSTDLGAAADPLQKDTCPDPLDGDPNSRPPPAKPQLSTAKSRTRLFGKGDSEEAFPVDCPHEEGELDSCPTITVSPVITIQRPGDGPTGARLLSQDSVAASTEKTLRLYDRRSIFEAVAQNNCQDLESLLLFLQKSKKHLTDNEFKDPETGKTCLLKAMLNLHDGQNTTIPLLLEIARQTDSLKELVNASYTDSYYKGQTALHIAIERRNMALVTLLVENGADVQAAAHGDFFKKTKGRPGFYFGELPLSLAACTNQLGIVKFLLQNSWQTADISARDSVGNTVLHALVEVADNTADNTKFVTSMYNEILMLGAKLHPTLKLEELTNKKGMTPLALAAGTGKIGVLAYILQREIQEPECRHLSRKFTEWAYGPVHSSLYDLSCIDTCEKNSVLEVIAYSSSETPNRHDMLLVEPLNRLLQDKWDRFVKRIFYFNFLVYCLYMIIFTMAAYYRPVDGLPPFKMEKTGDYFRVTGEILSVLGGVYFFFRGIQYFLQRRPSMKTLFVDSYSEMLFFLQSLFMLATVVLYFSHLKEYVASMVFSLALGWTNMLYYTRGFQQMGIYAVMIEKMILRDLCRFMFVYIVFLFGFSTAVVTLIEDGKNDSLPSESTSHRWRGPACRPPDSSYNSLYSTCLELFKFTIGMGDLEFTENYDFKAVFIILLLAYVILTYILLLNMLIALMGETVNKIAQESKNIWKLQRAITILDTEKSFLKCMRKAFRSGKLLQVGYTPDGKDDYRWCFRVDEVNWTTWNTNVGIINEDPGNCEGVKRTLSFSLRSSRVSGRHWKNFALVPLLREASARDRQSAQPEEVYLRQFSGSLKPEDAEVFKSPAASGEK
# assay_notes: Antagonist activity in capsaicin-induced FLIPR assays in HEK293 cells expressing human TRPV1
# Type: functional, cell-based
attribute_measured: IC50 (nM)
Give the value in nM but do not write nM after it.

Recorded results for 3 molecules are shown here.
molecule_smiles | attribute_measured | measured
Cc1cc2nc(N3CCN(c4ncccc4Cl)C[C@@H]3C)[nH]c2cc1C | IC50 | 5770
C[C@@H]1CN(c2nsnc2Cl)CCN1c1nc2ccc(C(C)(C)C)cc2[nH]1 | IC50 | 776
C[C@@H]1CN(c2ncccc2Cl)CCN1c1nc2ccc(Cl)cc2[nH]1 | IC50 | 325

# ---- query molecule ----
*Q* Provide IC50 value for the following molecule: CC(C)(C)c1ccc2nc(N3CCN(c4ncccc4Cl)CC3)[nH]c2c1
*A* 136
